Consider the following compounds; for each one, report its EC50.
Tested on: CEM cells HIV-1 protection, formazan growth assay
assayComment: NCI AIDS Antiviral Assay
Procedure: The ability of compounds to protect human CEM cells from HIV-1 infection is measured as a screen for new compounds capable of inhibiting the HIV virus. Five concentrations of drug were tested on uninfected and infected cells and cell growth was measured using a soluble formazan assay. […] Compounds that provided at least 50% protection were retested. Compounds that provided at least 50% protection on retest were listed as moderately active. […]

Use the examples below as a reference point.
>>> df
                                   compound                                testsystem     result
0  Cc1cc(NS(=O)(=O)c2ccc(NC(=O)c3cccc4c(Nc5ccc(S(=O)(=O)Nc6cc(C)on6)cc5)c5ccc(Cl)cc5nc34)cc2)no1  CEM cells HIV-1 protection, formazan growth assay   > 240 µM
1          COc1cc(Cc2nnc(SC)nc2C)cc(OC)c1OC  CEM cells HIV-1 protection, formazan growth assay      10 µM
2  CCC1C/C(=N\N=C2CC(C)(C)NC(C)(C)C2)CC(C)(C)N1 (stereo not drawn)  CEM cells HIV-1 protection, formazan growth assay   > 200 µM
3  CCCCC1=C(C(=O)N2CCOCC2)C2(OCCO2)C1Cl (stereo not drawn)  CEM cells HIV-1 protection, formazan growth assay  > 58.9 µM
4  CCC1=NC(N/N=C/c2ccccc2O)=N/C1=C\c1ccccc1O  CEM cells HIV-1 protection, formazan growth assay  > 50.1 µM
5                 CCCCOP(=O)(OCCCC)c1ccccc1  CEM cells HIV-1 protection, formazan growth assay  0.0631 µM
6    CCOC(=O)/C=C1\CCCn2c1ncc(C(=O)OCC)c2=O  CEM cells HIV-1 protection, formazan growth assay   > 200 µM
7  COc1cc(C[C@H]2C(=O)OC[C@@H]2Cc2ccc(OC)c(OC)c2)cc(OC)c1  CEM cells HIV-1 protection, formazan growth assay   > 200 µM

Please go through the list and note EC50 for each compound.
1. O=C(CC(=O)Nc1ccccc1)NNC(c1cc(N=Nc2ccc(Br)cc2)ccc1O)P(O)O (stereo not drawn)
2. CN(/N=C/c1ccccn1)C1=NCCN1
3. O=Nc1ccc(O)cc1
4. CCc1cccc(C(C)CC)c1NC(=O)C(=O)C(CC(=O)Nc1ccc(Cl)c(Cl)c1)C(=O)OC (stereo not drawn)
5. COc1ccc2c(c1)[nH]c(=O)c1c3ccccc3[nH]c21
6. CN(C)Cc1[nH]c(=O)[nH]c(=O)c1O

> 100 µM
> 200 µM
> 20 µM
> 186 µM
> 200 µM
> 200 µM

Please go through the list and note EC50 for each compound.
1. O=C(O)CSc1ccc2c3c(cccc13)C(=O)c1ccccc1-2
2. C[N+]1(C)CN(c2ccccc2)C2(CCN(CCCC(=O)c3cccs3)CC2)C1=O
3. Cc1ccc(C(=O)Cc2nc3c([nH]c2=O)c(C)nn3-c2ccccc2)c(C)c1
4. COC(=O)C(=O)C(/C=N/C(=S)NCCc1ccc(OC)c(OC)c1)=C(/O)c1ccc([N+](=O)[O-])cc1
5. NCc1ccc(S(N)(=O)=O)cc1
6. O/N=C1/C(=C/c2ccc(F)cc2)CCCC1C(NO)c1ccc(F)cc1 (stereo not drawn)
7. C/C([O-])=c1\c(C)nn2ccc[n+]12
8. CC(C)Cn1cnnc1NS(=O)(=O)c1cc(C(=O)NN)c(Cl)cc1S

> 200 µM
> 200 µM
> 200 µM
> 100 µM
> 200 µM
> 2.88 µM
> 309 µM
> 200 µM

Read the entry `CCOC(=O)Nc1ccc2nc(-c3cscn3)[nH]c2c1` and write its reported EC50.
> 457 µM

* * *

Test system: CEM cells HIV-1 protection, formazan growth assay
assayComment: NCI AIDS Antiviral Assay
testContext: measured here: growth of uninfected CEM cells
pIC50: −log10 of the molar value. Where a SMILES comes first, the peptide text is derived from it.
Consider the following compounds; for each one, report its pIC50.

Use the examples below as a reference point.
compound	testSystem	pIC50
Cc1cc(Cl)ccc1NC(=O)CC1SC(=NC(=O)c2ccccc2Cl)NC1=O (stereo unspecified)	CEM cells HIV-1 protection, formazan growth assay	< 4.78
COC(=O)[C@H](Cc1ccc(O)cc1)NC(=O)[C@H](Cc1ccc(O)cc1)NC(=O)OC(C)(C)C (HELM PEPTIDE1{[CC(C)(C)OC(=O)[*:2]].Y.Y.[CO[*:1]]}$$$$V2.0)	CEM cells HIV-1 protection, formazan growth assay	4.03
NP(=O)(Nc1ccccc1)Nc1ccccc1	CEM cells HIV-1 protection, formazan growth assay	< 3.70
CN(C)C(=O)Oc1c(-c2ccccc2)c(=O)n2c3ccccc3n3c(=O)n(C)c(=O)c1c23	CEM cells HIV-1 protection, formazan growth assay	< 5.90
O=c1oc2cc(O)ccc2c2oc3cc(O)ccc3c12	CEM cells HIV-1 protection, formazan growth assay	7.79

Please go through the list and note pIC50 for each compound.
1. CCCNC(=S)NN1C2CSC1CS2
2. O=C1CCN2CCCC1C2 (stereo unspecified)
3. BrCc1ccccc1C[P+](c1ccccc1)(c1ccccc1)c1ccccc1
4. CCOS(=O)(=O)c1ccc(-c2c3nc(c(-c4ccc(S(=O)(=O)OCC)cc4)c4ccc([nH]4)c(-c4ccc(S(=O)(=O)OCC)cc4)c4nc(c(-c5ccc(S(=O)(=O)OCC)cc5)c5ccc2[nH]5)C=C4)C=C3)cc1
5. C=CC(C)(O)CNc1ccccc1 (stereo unspecified)

< 3.75
2.89
5.61
< 4.00
< 3.69

Read the entry `Cc1cc(O)cc(C)c1Cl` and write its reported pIC50.
< 3.70

* * *

Tested on: CEM cells HIV-1 protection, formazan growth assay
assayComment: NCI AIDS Antiviral Assay
metricName: EC50

>>> print(df.to_string())
                                   molecule  metricname     result
0  COc1ccc2nc3ccccc3c(NCCCCCCN(CCCl)CCCl)c2c1        EC50   > 0.2 µM
1  CC1SC2=NC3=C(c4ccccc4C3=O)C(c3ccc(Cl)cc3)N2C1=O (stereo unspecified)        EC50  > 35.5 µM
2            CNc1[nH]c(=S)nc2sc3c(c12)CCCC3        EC50   > 151 µM
3                O=C(NNCc1ccccc1O)c1ccccc1O        EC50   > 200 µM
4       CCCCCC(=O)N1SC(NC(=O)OC)=Nc2ccccc21        EC50   > 155 µM

Turning now to a further record.
Read the entry O=C1NP23(OCCO2)Oc2ccccc2C3(C(F)(F)F)O1 (stereo unspecified) and write its reported EC50.
> 776 µM

* * *

Test system: CEM cells HIV-1 protection, formazan growth assay
assayComment: NCI AIDS Antiviral Assay
testContext: measured here: growth of uninfected CEM cells
Consider the following compounds; for each one, report its IC50.

>>> df
                                   compound  metricname    result
0  CN1CCc2c(sc3nc(Nc4ccccc4)n(N)c(=O)c23)C1        IC50   93.3 µM
1  [N-]=[N+]=NC1(c2ccccc2)C(=O)c2cccc3c4ccccc4n(c23)C1=O (stereo unspecified)        IC50  > 200 µM
2  COc1ccc2nc3cc(Cl)ccc3c(NCCNCCCNC(=O)c3cc(-c4ccccc4)nc4ccccc34)c2c1        IC50   1.12 µM
3  NC1=CN2c3ccccc3N(CC(=O)O)C2C=C1 (stereo unspecified)        IC50  > 200 µM
4  O=S(=O)(c1ccc(Br)cc1)n1c2ccc(Br)cc2c2nc3ccccc3nc21        IC50  > 100 µM

Find the measured IC50 of `COCn1c(C(=O)c2ccccc2)c(C)c(=O)[nH]c1=O` with CEM cells HIV-1 protection, formazan growth assay as test system.
> 200 µM

* * *

System: CEM cells HIV-1 protection, formazan growth assay
assayComment: NCI AIDS Antiviral Assay
testContext: measured here: growth of uninfected CEM cells
metricName: pIC50
Numbers only, as −log10 of the molar value.

Please go through the list and note pIC50 for each compound.
1. CCCCNCCCC.[C-]#[O+].[C-]#[O+].[C-]#[O+].[C-]#[O+].[C-]#[O+].[Cr]
2. COC(=O)c1oc(-c2ccccc2)c(-c2ccccc2)c1C(=O)OC
3. CN1COc2c(n(C)c(=O)[nH]c2=O)C1
4. CC(C)CCCC(C)[C@H]1CC[C@@H]2[C@H]3CC[C@H]4C[C@@H](CCC=C(c5cc(Cl)c(OCc6ccc([N+](=O)[O-])cc6)c(C(=O)OCc6ccc([N+](=O)[O-])cc6)c5)c5cc(Cl)c(OCc6ccc([N+](=O)[O-])cc6)c(C(=O)OCc6ccc([N+](=O)[O-])cc6)c5)CC[C@]4(C)[C@@H]3CC[C@]12C (stereo partly specified)

1. 4.25
2. 4.13
3. 3.92
4. 4.14
